# procedure_details: self-splicing fitness, log relative to wild type (ln ratio); higher = more splicing; Tetrahymena group I intron in knt gene, E. coli kanamycin selection, DiMSum; sequences stand for … in CUCUCU…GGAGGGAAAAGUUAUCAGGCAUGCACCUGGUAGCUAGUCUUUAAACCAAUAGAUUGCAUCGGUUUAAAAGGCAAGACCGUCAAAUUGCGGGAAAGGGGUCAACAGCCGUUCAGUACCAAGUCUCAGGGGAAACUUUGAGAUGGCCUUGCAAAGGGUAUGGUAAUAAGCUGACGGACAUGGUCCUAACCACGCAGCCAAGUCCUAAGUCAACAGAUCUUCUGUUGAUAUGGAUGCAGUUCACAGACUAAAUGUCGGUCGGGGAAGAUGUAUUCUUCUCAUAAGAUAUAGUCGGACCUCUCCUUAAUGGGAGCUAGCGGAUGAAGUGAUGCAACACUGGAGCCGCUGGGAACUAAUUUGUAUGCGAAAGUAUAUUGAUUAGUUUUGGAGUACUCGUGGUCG;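 note: selection with 25 µg/mL kanamycin versus none on LB agar overnight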
# test_parameters: 37 °C
Below is a list of entries, each paired with its recorded self-splicing fitness (ln) value.
Respond numerically, and do not add a unit to the figure.

Recorded self-splicing fitness (ln), per entry:
{"sequence_chain": "GGUCAGCAAUAUUACGCACG", "self-splicing fitness (ln)": 0.287}
{"sequence_chain": "GCUGAGCAAUAUUACGGCUC", "self-splicing fitness (ln)": -1.71}
{"sequence_chain": "UUACAGCAAUAUUACGAUAC", "self-splicing fitness (ln)": -3.46}
{"sequence_chain": "UGAAAGCAAUAUUACGUUGU", "self-splicing fitness (ln)": -2.04}

Specify self-splicing fitness (ln) for `AGGCAGCAAUAUUACGAACC` and stop.
-1.03

Specify self-splicing fitness (ln) for `AAACAGCAAUAUUACGUUCC` and stop.
-1.13

Specify self-splicing fitness (ln) for `GUUGAGCAAUAUUACGACGA` and stop.
-2.2

Specify self-splicing fitness (ln) for `GAGAAGCAAUAUUACGCAAA` and stop.
-1.8

Specify self-splicing fitness (ln) for `UUACAGCAAUAUUACGAGAA` and stop.
-1.59

Specify self-splicing fitness (ln) for `AUAUAGCAAUAUUACGUGAA` and stop.
-0.717

Specify self-splicing fitness (ln) for `UCGAAGCAAUAUUACGGGGA` and stop.
-0.644

Specify self-splicing fitness (ln) for `UAAUAGCAAUAUUACGGAUA` and stop.
-1.83

Specify self-splicing fitness (ln) for `UUGCAGCAAUAUUACGAUUA` and stop.
0.339

Specify self-splicing fitness (ln) for `AAACAGCAAUAUUACGUUGC` and stop.
-3.26

Specify self-splicing fitness (ln) for `GUGGAGCAAUAUUACGGCUA` and stop.
-0.218

Specify self-splicing fitness (ln) for `UAACAGCAAUAUUACGGGCA` and stop.
-0.324

Specify self-splicing fitness (ln) for `CGCCAGCAAUAUUACGCUCG` and stop.
-0.347

Specify self-splicing fitness (ln) for `CCGAAGCAAUAUUACGCAGC` and stop.
-2.36

Specify self-splicing fitness (ln) for `AAUCAGCAAUAUUACGACCU` and stop.
0.538

Specify self-splicing fitness (ln) for `AACGAGCAAUAUUACGGGGC` and stop.
-3.46

Specify self-splicing fitness (ln) for `AUAGAGCAAUAUUACGUUUG` and stop.
-2

Specify self-splicing fitness (ln) for `CUAUAGCAAUAUUACGCUGG` and stop.
-2.05
